# Measurement Target: T1, human GPRC5D protein (KACTUS, catalog number GPR-HM05P) (human, UniProt Q9NZD1 1-345, limits assumed)
# T1 construct: Bought reagent used as analyte in the Fortebio assay; the construct is not described
# T1 sequence (Q9NZD1 whole entry): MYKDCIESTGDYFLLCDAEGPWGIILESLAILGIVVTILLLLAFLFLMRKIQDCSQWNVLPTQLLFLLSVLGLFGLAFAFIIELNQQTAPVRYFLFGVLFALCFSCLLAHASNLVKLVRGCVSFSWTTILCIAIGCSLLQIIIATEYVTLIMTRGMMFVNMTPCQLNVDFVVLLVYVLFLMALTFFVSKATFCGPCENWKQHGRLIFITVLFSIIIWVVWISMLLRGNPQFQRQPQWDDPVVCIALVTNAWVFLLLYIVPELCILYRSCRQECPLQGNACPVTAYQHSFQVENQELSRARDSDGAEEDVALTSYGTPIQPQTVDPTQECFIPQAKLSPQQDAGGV
# Experiment Notes: Fortebio BLI, antibody captured on AHC chip, human GPRC5D protein as analyte
Quantity Name: pKd
Scale: negative log10 of molar concentration, which is what pKd denotes.

Please review the following examples before continuing.
[[record]]
binder = "humanized antibody 6E97 (hz) (antibody, V domains shown) VH: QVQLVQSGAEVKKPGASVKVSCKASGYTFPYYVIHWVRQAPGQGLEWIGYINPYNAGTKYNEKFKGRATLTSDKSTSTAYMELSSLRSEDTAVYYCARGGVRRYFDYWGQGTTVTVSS VL: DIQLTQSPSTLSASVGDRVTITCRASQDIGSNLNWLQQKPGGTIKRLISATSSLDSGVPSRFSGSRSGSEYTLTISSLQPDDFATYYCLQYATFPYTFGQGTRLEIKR"
quantity_name = "pKd"
number = 9.34

[[record]]
binder = "humanized antibody 26D1 (hz) (antibody, V domains shown) VH: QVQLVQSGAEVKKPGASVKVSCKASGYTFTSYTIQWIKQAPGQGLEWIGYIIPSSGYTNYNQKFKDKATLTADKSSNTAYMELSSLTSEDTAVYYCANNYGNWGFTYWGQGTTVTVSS VL: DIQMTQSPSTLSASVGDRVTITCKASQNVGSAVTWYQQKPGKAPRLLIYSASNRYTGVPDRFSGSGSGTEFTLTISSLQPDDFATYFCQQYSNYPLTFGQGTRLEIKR"
quantity_name = "pKd"
number = 8.77


Now examine the next entry.
# pKd (binder: humanized antibody 24F5 (hz) (antibody, V domains shown) VH: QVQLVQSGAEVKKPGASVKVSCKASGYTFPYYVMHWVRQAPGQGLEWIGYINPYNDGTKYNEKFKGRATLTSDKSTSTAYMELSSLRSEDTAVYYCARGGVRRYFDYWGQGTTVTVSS VL: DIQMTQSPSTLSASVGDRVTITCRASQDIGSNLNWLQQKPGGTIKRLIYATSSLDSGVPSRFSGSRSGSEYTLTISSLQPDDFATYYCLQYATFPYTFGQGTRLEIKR ) is 8.87
